Below: a set of entries, each annotated with reported KL.
# target_entity: Muscarinic acetylcholine receptor (Rattus norvegicus) (UniProt P08482+P08483+P08485+P08911+P10980)
# assay_text: Low affinity dissociation constant to Muscarinic acetylcholine receptor in rat cerebral cortex
# Type: tissue-based
readout_label: KL (µM)

C[S+](C)CC#CCN1C(=O)CCC1=O.[Cl-]    12.7
C[S+](C)CC#CCN1CCCC1=O.[Cl-]    2.2
C[N+](C)(C)CC#CCN1CCCC1=O.[I-] [OXOTREMORINE METHIODIDE]    5.4
O=C1CCCN1CC#CC[S+]1CCCC1.[Cl-]    0.99

----------
Below: a set of entries, each annotated with reported Ratio.
# assay_text: Equipotent molar ratio measured on frog rectus abdominis
# Type: functional, Rectus abdominis muscle
readout_label: Ratio

C[N+](C)(C)CC#CCN1CCCC1=O.[I-] [OXOTREMORINE METHIODIDE]    2.1
O=C1CCC(=O)N1CC#CC[S+]1CCCC1.[Cl-]    18
O=C1CCCN1CC#CC[S+]1CCCC1.[Cl-]    1.4
C[S+](C)CC#CCN1C(=O)CCC1=O.[Cl-]    692

----------
# assay_text: Acute toxicity was measured in mice
# stated_conditions: mouse, in vivo
readout_label: LD50

C[N+](C)(C)CCOC(N)=O.[Cl-]    1.7 µmol/kg

----------
# Organism: Cavia porcellus
# assay_text: Relative efficacy of compound was determined in guinea pig iluem
# Type: functional
Hi! Could you tag entries with Efficacy below 0.05 as MET, and those at or above as NOT MET? Much appreciated.

C[N+](C)(C)CCOC(N)=O.[Cl-] [CARBACHOL]    NOT MET
C[N+](C)(C)CC#CCN1CCCC1=O.[I-] [OXOTREMORINE METHIODIDE]    NOT MET
C[S+](C)CC#CCN1C(=O)CCC1=O.[Cl-]    NOT MET
C[S+](C)CC#CCN1CCCC1=O.[Cl-]    NOT MET
O=C1CCC(=O)N1CC#CC[S+]1CCCC1.[Cl-]    MET
O=C1CCCN1CC#CC[S+]1CCCC1.[Cl-]    NOT MET

----------
# target_entity: Muscarinic acetylcholine receptor
# assay_text: Binding affinity to Muscarinic acetylcholine receptor in rat cerebral cortex
# Assay type: tissue-based
Hi! Could you tag entries with IC50 below 1 µM as rule met, and those at or above as rule not met? Much appreciated.

C[S+](C)CC#CCN1CCCC1=O.[Cl-]    rule met
O=C1CCC(=O)N1CC#CC[S+]1CCCC1.[Cl-]    rule not met
C[N+](C)(C)CC#CCN1CCCC1=O.[I-] [OXOTREMORINE METHIODIDE]    rule not met
C[S+](C)CC#CCN1C(=O)CCC1=O.[Cl-]    rule not met
O=C1CCCN1CC#CC[S+]1CCCC1.[Cl-]    rule met
